compounds and their reported GFP response vs DMSO
assay: RPL19A-GFP modulators, yeast TOR pathway, confirmation, cell-based, S. cerevisiae, flow cytometry, cherry picks, mother/daughter gates (AID 2270); details: S. cerevisiae RPL19A-GFP strain, 3 h, measured here: mother cell gate, at 10 µM, stronger effect = lower value, 100 = same GFP as DMSO wells
measured.metric: GFP response vs DMSO (%)

compound: Cc1ccc(-c2nc(NC(=O)c3nn(C)cc3[N+](=O)[O-])sc2C)cc1
output.unit: %
recorded.measurement: 101
--
compound: COc1ccccc1-c1noc(CCC(=O)Nc2cccc(C(F)(F)F)c2)n1
output.unit: %
recorded.measurement: 98.5
--
compound: Cc1ccc(N2C(=O)C3C4C=CC(CNC(=S)N5CCN(c6cccc(C)c6)C(C)C5)(O4)C3C2=O)cc1 (stereo not drawn)
output.unit: %
recorded.measurement: 96.7

Taken from PubChem BioAssay.
